B1: TPR t1 (parent)
chain: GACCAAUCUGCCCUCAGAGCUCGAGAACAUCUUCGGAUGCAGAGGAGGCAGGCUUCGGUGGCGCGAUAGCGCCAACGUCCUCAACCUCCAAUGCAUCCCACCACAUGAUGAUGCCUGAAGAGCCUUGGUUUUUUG

# Variants of: B1
# Protocol Details: polymerase ribozyme fitness, log enrichment relative to wild type (log ratio); higher = more active; in vitro selection for triplet polymerase activity
Experimental Readout: polymerase ribozyme fitness (log ratio)
Output: the number by itself.

Mutation Spec: A41G C73A C82A C115A G135U
Data Value: -2.65

Mutation Spec: U55A G71U C102U A121G U132A
Data Value: 0.31

Mutation Spec: A43U G120A G127A U129C
Data Value: -3.11

Mutation Spec: A6G C13A G17A A95G
Data Value: -3.46

Mutation Spec: C8G C13G
Data Value: 0.865

Qu. Look up and report measured polymerase ribozyme fitness (log ratio) for this entry: U30C A41G
Ans. -3.33

Qu. Please give the documented polymerase ribozyme fitness (log ratio) of U54C U116A U131C
Ans. -3.16

Reference source: the RNAGym collection of RNA variant scans (doi:10.1073/pnas.2313332121)
